- Measurement Description: Cytotoxicity, neutral red uptake assay, AGS
- Type: cell-based
- Conditions Used: human, AGS gastric adenocarcinoma cells, confluent monolayers, confluent cultures, 0-1000 µM, mean ± SD
Parameter: IC50 at 24 h. Scope: all listed entries.

Compound: COC(=O)[C@@H]1CCCN1C(=O)[C@@]1(C)CCC[C@]2(C)C(CC[C@@H](C)CC(=O)O)=C(C)CCC12 (stereo partly shown)
Modifier: =
IC50 at 24 h (µM): 266
//
Compound: Cc1c(OCC(F)(F)F)ccnc1C[S+]([O-])c1nc2ccccc2[nH]1 (stereo not shown) [Lansoprazole, reference compound]
Modifier: =
IC50 at 24 h (µM): 162
//
Compound: C=C1CCC2[C@](C)(CCC[C@]2(C)C(=O)O)[C@H]1CC[C@@H](C)CC(=O)N[C@@H](CC(C)C)C(=O)OC (stereo partly shown)
Modifier: =
IC50 at 24 h (µM): 308
//
Compound: COC(=O)CNC(=O)C[C@H](C)CCC1=C(C)CCC2[C@@](C)(C(=O)NCC(=O)OC)CCC[C@]12C (stereo partly shown)
Modifier: =
IC50 at 24 h (µM): 592
//
Compound: C=C1CCC2[C@](C)(CCC[C@]2(C)C(=O)O)[C@H]1CC[C@@H](C)CC(=O)N1CCC[C@H]1C(=O)OC (stereo partly shown)
Modifier: =
IC50 at 24 h (µM): 297
//
Compound: C=C1CCC2[C@](C)(CCC[C@]2(C)C(=O)N[C@@H](CC(C)C)C(=O)OC)[C@H]1CC[C@@H](C)CC(=O)N[C@@H](CC(C)C)C(=O)OC (stereo partly shown)
Modifier: >
IC50 at 24 h (µM): 1000
//
Compound: COC(=O)CNC(=O)C[C@H](C)CCC1=C(C)CCC2[C@@](C)(C(=O)O)CCC[C@]12C (stereo partly shown)
Modifier: =
IC50 at 24 h (µM): 189

* * *

- Measurement Description: Cytotoxicity, neutral red uptake assay, Hep G2
- Format: cell-based
- Conditions Used: human, Hep G2 cells, confluent monolayers, confluent cultures, 0-1000 µM, mean ± SD

Compound: COC(=O)[C@H](Cc1c[nH]c2ccccc12)NC(=O)C[C@H](C)CCC1=C(C)CCC2[C@@](C)(C(=O)N[C@@H](Cc3c[nH]c4ccccc34)C(=O)OC)CCC[C@]12C (stereo partly shown) [Compound 10]
Modifier: >
IC50 at 24 h [µM]: 1000
//
Compound: C=C1CCC2[C@](C)(CCC[C@]2(C)C(=O)N[C@@H](Cc2c[nH]c3ccccc23)C(=O)OCC)[C@H]1CC[C@@H](C)CC(=O)N[C@@H](Cc1c[nH]c2ccccc12)C(=O)OCC (stereo partly shown) [Compound 20]
Modifier: >
IC50 at 24 h [µM]: 1000
//
Compound: COC(=O)[C@@H](NC(=O)C[C@H](C)CCC1=C(C)CCC2[C@@](C)(C(=O)O)CCC[C@]12C)C(C)C (stereo partly shown) [Compound 2]
Modifier: >
IC50 at 24 h [µM]: 1000
//
Compound: C=C1CCC2[C@](C)(CCC[C@]2(C)C(=O)N[C@@H](CC(C)C)C(=O)OC)[C@H]1CC[C@@H](C)CC(=O)N[C@@H](CC(C)C)C(=O)OC (stereo partly shown) [Compound 18]
Modifier: >
IC50 at 24 h [µM]: 1000
//
Compound: COC(=O)[C@@H]1CCCN1C(=O)[C@@]1(C)CCC[C@]2(C)C(CC[C@@H](C)CC(=O)O)=C(C)CCC12 (stereo partly shown) [Compound 7]
Modifier: =
IC50 at 24 h [µM]: 364
//
Compound: COC(=O)[C@@H]1CCCN1C(=O)C[C@H](C)CCC1=C(C)CCC2[C@@](C)(C(=O)N3CCC[C@H]3C(=O)OC)CCC[C@]12C (stereo partly shown) [Compound 9]
Modifier: =
IC50 at 24 h [µM]: 67
//
Compound: C=C1CCC2[C@](C)(CCC[C@]2(C)C(=O)O)[C@H]1CC[C@@H](C)CC(=O)NCC(=O)OC (stereo partly shown) [Compound 11]
Modifier: =
IC50 at 24 h [µM]: 541
//
Compound: C=C1CCC2[C@](C)(CCC[C@]2(C)C(=O)O)[C@H]1CC[C@@H](C)CC(=O)N1CCC[C@H]1C(=O)OC (stereo partly shown) [Compound 14]
Modifier: =
IC50 at 24 h [µM]: 894
//
Compound: C=C1CCC2[C@](C)(CCC[C@]2(C)C(=O)N2CCC[C@H]2C(=O)OC)[C@H]1CC[C@@H](C)CC(=O)N1CCC[C@H]1C(=O)OC (stereo partly shown) [Compound 19]
Modifier: =
IC50 at 24 h [µM]: 316
//
Compound: COC(=O)[C@H](Cc1c[nH]c2ccccc12)NC(=O)C[C@H](C)CCC1=C(C)CCC2[C@@](C)(C(=O)O)CCC[C@]12C (stereo partly shown) [Compound 5]
Modifier: =
IC50 at 24 h [µM]: 291
//
Compound: C=C1CCC2[C@](C)(CCC[C@]2(C)C(=O)O)[C@H]1CC[C@@H](C)CC(=O)N[C@@H](CC(C)C)C(=O)OC (stereo partly shown) [Compound 13]
Modifier: =
IC50 at 24 h [µM]: 808
//
Compound: COC(=O)CNC(=O)C[C@H](C)CCC1=C(C)CCC2[C@@](C)(C(=O)O)CCC[C@]12C (stereo partly shown) [Compound 1]
Modifier: =
IC50 at 24 h [µM]: 242
//
Compound: COC(=O)[C@H](CC(C)C)NC(=O)C[C@H](C)CCC1=C(C)CCC2[C@@](C)(C(=O)O)CCC[C@]12C (stereo partly shown) [Compound 3]
Modifier: =
IC50 at 24 h [µM]: 806

* * *

Parameter: IC50 at 24 h. Scope: all listed entries.
- Measurement Description: Cytotoxicity, neutral red uptake assay, AGS
- Type: cell-based
- Conditions Used: human, AGS gastric adenocarcinoma cells, confluent monolayers, confluent cultures, 0-1000 µM, mean ± SD

Compound: C=C1CCC2[C@](C)(CCC[C@]2(C)C(=O)O)[C@H]1CC[C@@H](C)CC(=O)NCC(=O)OC (stereo partly drawn)
IC50 at 24 h, µM: 361
//
Compound: C=C1CCC2[C@](C)(CCC[C@]2(C)C(=O)N2CCC[C@H]2C(=O)OC)[C@H]1CC[C@@H](C)CC(=O)N1CCC[C@H]1C(=O)OC (stereo partly drawn)
IC50 at 24 h, µM: 206
//
Compound: COC(=O)[C@@H]1CCCN1C(=O)C[C@H](C)CCC1=C(C)CCC2[C@@](C)(C(=O)N3CCC[C@H]3C(=O)OC)CCC[C@]12C (stereo partly drawn)
IC50 at 24 h, µM: 82

* * *

- Measurement Description: Cytotoxicity, neutral red uptake assay, Hep G2
- Assay type: cell-based
- Conditions Used: human, Hep G2 cells, confluent monolayers, confluent cultures, 0-1000 µM, mean ± SD

Molecule: COC(=O)[C@@H]1CCCN1C(=O)C[C@H](C)CCC1=C(C)CCC2[C@@](C)(C(=O)O)CCC[C@]12C (stereo partly drawn)
Modifier: =
IC50 at 24 h (µM): 321

Molecule: Cc1c(OCC(F)(F)F)ccnc1C[S+]([O-])c1nc2ccccc2[nH]1 (stereo not drawn) [Lansoprazole, reference compound]
Modifier: =
IC50 at 24 h (µM): 221

Molecule: C=C1CCC2[C@](C)(CCC[C@]2(C)C(=O)O)[C@H]1CC[C@@H](C)CC(=O)N[C@H](C(=O)OC)C(C)C (stereo partly drawn)
Modifier: =
IC50 at 24 h (µM): 673

Molecule: C=C1CCC2[C@](C)(CCC[C@]2(C)C(=O)O)[C@H]1CC[C@@H](C)CC(=O)N[C@@H](Cc1c[nH]c2ccccc12)C(=O)OC (stereo partly drawn)
Modifier: >
IC50 at 24 h (µM): 1000

Molecule: COC(=O)CNC(=O)C[C@H](C)CCC1=C(C)CCC2[C@@](C)(C(=O)NCC(=O)OC)CCC[C@]12C (stereo partly drawn)
Modifier: =
IC50 at 24 h (µM): 841

Molecule: C=C1CCC2[C@](C)(CCC[C@]2(C)C(=O)NCC(=O)OC)[C@H]1CC[C@@H](C)CC(=O)NCC(=O)OC (stereo partly drawn)
Modifier: =
IC50 at 24 h (µM): 529

* * *

- Measurement Description: Cytotoxicity, neutral red uptake assay, AGS
- Type: cell-based
- Conditions Used: human, AGS gastric adenocarcinoma cells, confluent monolayers, confluent cultures, 0-1000 µM, mean ± SD

Compound: C=C1CCC2[C@](C)(CCC[C@]2(C)C(=O)NCC(=O)OC)[C@H]1CC[C@@H](C)CC(=O)NCC(=O)OC (stereo partly drawn)
Units Text: µM
Modifier: =
IC50 at 24 h: 483
//
Compound: C=C1CCC2[C@](C)(CCC[C@]2(C)C(=O)O)[C@H]1CC[C@@H](C)CC(=O)N[C@@H](Cc1c[nH]c2ccccc12)C(=O)OC (stereo partly drawn)
Units Text: µM
Modifier: >
IC50 at 24 h: 1000
//
Compound: COC(=O)[C@@H]1CCCN1C(=O)C[C@H](C)CCC1=C(C)CCC2[C@@](C)(C(=O)O)CCC[C@]12C (stereo partly drawn)
Units Text: µM
Modifier: =
IC50 at 24 h: 167
//
Compound: C=C1CCC2[C@](C)(CCC[C@]2(C)C(=O)N[C@@H](Cc2c[nH]c3ccccc23)C(=O)OCC)[C@H]1CC[C@@H](C)CC(=O)N[C@@H](Cc1c[nH]c2ccccc12)C(=O)OCC (stereo partly drawn)
Units Text: µM
Modifier: >
IC50 at 24 h: 1000
//
Compound: COC(=O)[C@H](CC(C)C)NC(=O)C[C@H](C)CCC1=C(C)CCC2[C@@](C)(C(=O)O)CCC[C@]12C (stereo partly drawn)
Units Text: µM
Modifier: =
IC50 at 24 h: 445
//
Compound: COC(=O)[C@@H](NC(=O)C[C@H](C)CCC1=C(C)CCC2[C@@](C)(C(=O)O)CCC[C@]12C)C(C)C (stereo partly drawn)
Units Text: µM
Modifier: >
IC50 at 24 h: 1000

FYI, the data here is from paper PMC6259277.
